The values you see were collected from ChEMBL document CHEMBL1799925.

# Assay Info: Cmax in Beagle dog at 50 mg/kg, po by LC/MS/MS analysis
# Type: ADME, organism-based, Canis lupus familiaris
# Set-up: dose 50 mg/kg, route oral
# Details: in vivo
Value Type: Cmax (µM)

# Query Smiles, Scale Unit, Observed Value
measured = [
    ("C/C(=N\\O)c1nc([C@@H](O)[C@H](O)[C@H](O)CO)c[nH]1.Cl", "µM", 79.5),
]

----------
# Assay Info: Clearance in cynomolgus monkey at 1 mg/kg, iv by LC/MS/MS analysis
# Type: ADME, organism-based, Macaca fascicularis
# Design: dose 1 mg/kg, route intravenous
# Details: in vivo

# Query Smiles, clearance
data = [
    ("C/C(=N\\O)c1nc([C@@H](O)[C@H](O)[C@H](O)CO)c[nH]1.Cl", "4.8 mL/min/kg"),
]

----------
# Assay Info: AUC (0 to infinity) in cynomolgus monkey at 30 mg/kg, po by LC/MS/MS analysis
# Type: ADME, organism-based, Macaca fascicularis
# Design: dose 30 mg/kg, route oral, time infinity
# Details: plasma

# Query Smiles, Scale Unit, AUC(0-inf)
data = [
    ("C/C(=N\\O)c1nc([C@@H](O)[C@H](O)[C@H](O)CO)c[nH]1.Cl", "µM·h", 70.1),
]

----------
# Assay Info: Cmax in healthy human at 1 mg/kg, po by LC/MS/MS analysis
# Type: ADME, organism-based
# Design: dose 1 mg/kg, route oral
# Details: in vivo

# Query Smiles, Cmax
rows = [
    ("C/C(=N\\O)c1nc([C@@H](O)[C@H](O)[C@H](O)CO)c[nH]1.Cl", "3000 nM"),
]

----------
# Assay Info: Tmax in healthy human at 1 mg/kg, po by LC/MS/MS analysis
# Type: ADME, organism-based
# Design: dose 1 mg/kg, route oral
# Details: in vivo
Value Type: Tmax (h)

# Query Smiles, Scale Unit, Observed Value
measured = [
    ("C/C(=N\\O)c1nc([C@@H](O)[C@H](O)[C@H](O)CO)c[nH]1.Cl", "h", 2),
]

----------
# Assay Info: AUC (0 to infinity) in Sprague-Dawley rat at 10 mg/kg, po by LC/MS/MS analysis
# Format: ADME, organism-based
# Design: time infinity, dose 10 mg/kg, route oral
# Details: plasma

# Query Smiles, AUC(0-inf) (µM·h)
rows = [
    ("C/C(=N\\O)c1nc([C@@H](O)[C@H](O)[C@H](O)CO)c[nH]1.Cl", 18.7),
]

----------
# System: Mus musculus
# Assay Info: Immunomodulatory activity in 129/SvEvBrd X C57BL/6 F1 mouse assessed as decrease in peripheral blood lymphocyte count at 30 mg/kg, po measured after 18 hrs by complete blood count analysis relative to control
# Assay type: ADME, organism-based
# Parameters: dose 30 mg/kg, route oral; scale not given: the % may be the effect or the level left
# Details: in vivo
Value Type: Activity (%)

# Query Smiles, Study System, Observed Value
data = [
    ("Cc1onc(-c2nc([C@@H](O)[C@H](O)[C@H](O)CO)c[nH]2)c1[N+](=O)[O-].Cl", "Mus musculus", -27),
    ("C/C(=N\\O)c1nc([C@@H](O)[C@H](O)[C@H](O)CO)c[nH]1.Cl", "Mus musculus", -60),
    ("Cl.OC[C@@H](O)[C@@H](O)[C@H](O)c1c[nH]c(-c2cc(C(F)(F)F)on2)n1", "Mus musculus", 2),
    ("CC(=O)c1nc([C@@H](O)[C@H](O)[C@H](O)CO)c[nH]1.Cl", "Mus musculus", -25),
    ("Cc1cc(-c2nc([C@@H](O)[C@H](O)[C@H](O)CO)c[nH]2)no1.Cl", "Mus musculus", -39),
    ("Cc1cc(-c2nc([C@@H](O)[C@H](O)[C@H](O)CO)c[nH]2)on1.Cl", "Mus musculus", -4),
    ("CN(C)Cc1cc(-c2nc([C@@H](O)[C@H](O)[C@H](O)CO)c[nH]2)no1.Cl", "Mus musculus", -10),
    ("Cl.OC[C@@H](O)[C@@H](O)[C@H](O)c1c[nH]c(-c2ccon2)n1", "Mus musculus", -70),
    ("CCc1conc1-c1nc([C@@H](O)[C@H](O)[C@H](O)CO)c[nH]1.Cl", "Mus musculus", -55),
]
